# System: Mycobacterium tuberculosis
# EXPERIMENT: Antibacterial activity against Mycobacterium tuberculosis
# Assay type: functional
RECORDED_ENDPOINT: MIC
Param answer (str): number followed by unit.

MOLECULE	RECORDED_ENDPOINT	OBSERVED_RESULT
COc1ccc(Cn2cnc3c(-c4ccco4)nc(Cl)nc32)cc1	MIC	0.39 µg/mL
CO[C@H]1/C=C/O[C@@]2(C)Oc3c(C)c(O)c4c(O)c(c(/C=N/N5CCN(C)CC5)c(O)c4c3C2=O)NC(=O)/C(C)=C\C=C\[C@H](C)[C@H](O)[C@@H](C)[C@@H](O)[C@@H](C)[C@H](OC(C)=O)[C@@H]1C [RIFAMPIN]	MIC	0.25 µg/mL

// MIC lookup, molecule = "COc1ccc(Cn2cnc3c(-c4cccs4)nc(Cl)nc32)cc1" , result: 0.78 µg/mL

// MIC lookup, molecule = "COc1ccc(Cn2cnc3c(-c4ccco4)ncnc32)cc1" , result: 1.65 µg/mL
